- Tested on: Human immunodeficiency virus 1
- procedure-summary: Anti-HIV activity in acutely infected H9 lymphocytes.
- Type: functional, organism-based
assay-readout: log10(EC50) (log10 of the value in µM)
Could you please treat all values as log10 of EC50 in µM?

See these solved cases before continuing.
CC1(C)Oc2ccc3ccc(=O)oc3c2C(OC(=O)C23CCC(C)(C(=O)O2)C3(C)C)C1OC(=O)C12CCC(C)(C(=O)O1)C2(C)C (stereo in doubt; 39)
1.51
CC(=O)OC1c2c(ccc3ccc(=O)oc23)OC(C)(C)C1OC(C)=O (stereo in doubt; 37)
1.63
CC(C)CC(=O)OC1c2c(ccc3ccc(=O)oc23)OC(C)(C)C1OC(=O)CC(C)C (stereo in doubt; 9)
0.85
CC1(C)Oc2ccc3ccc(=O)oc3c2[C@@H](OC(=O)C23CCC(C)(C(=O)O2)C3(C)C)[C@H]1OC(=O)C12CCC(C)(C(=O)O1)C2(C)C (mixture of isomers; 16)
0.60
CC(C)CC(=O)OC1c2c(ccc3ccc(=O)oc23)OC(C)(C)C1OC(=O)CC(C)C (stereo in doubt; 42)
1.32

Now examine the next entry.
Memo: CC1(C)Oc2ccc3ccc(=O)oc3c2[C@@H](OC(=O)C23CCC(C)(C(=O)O2)C3(C)C)[C@H]1OC(=O)C12CCC(C)(C(=O)O1)C2(C)C (mixture of isomers; 17) , reported log10(EC50): 2.16

----------
- procedure-summary: Tested for in vitro therapeutic index as the ratio of IC50 to EC50 in acutely infected H9 Lymphocytes
- Assay type: organism-based, Human immunodeficiency virus 1
- experimental-conditions: human immunodeficiency virus 1, H9 lymphocytes acutely infected with HIV-1; read-out: TI
assay-readout: selectivity ratio

Consider the following illustrative entries.
CC1(C)Oc2ccc3ccc(=O)oc3c2C(OC(=O)c2cccc(Cl)c2)C1O (stereo not drawn)
2.4
CC(=O)O[C@@H]1[C@H](OC(=O)CC(C)C)c2c(ccc3ccc(=O)oc23)OC1(C)C [SUKSDORFIN]
30.6

// field: selectivity ratio; key: COC1C(OC(=O)c2cccc(Cl)c2)c2c(ccc3ccc(=O)oc23)OC1(C)C (stereo not drawn) ; value = 0.34

----------
- procedure-summary: Tested for in vitro therapeutic index as the ratio of IC50 to EC50 in acutely infected H9 Lymphocytes
- Assay type: organism-based, Human immunodeficiency virus 1
- experimental-conditions: human immunodeficiency virus 1, H9 lymphocytes acutely infected with HIV-1; read-out: TI
Classification field: 1 = selectivity ratio at or over 10; -1 = selectivity ratio under 10.

Some solved cases for reference:
CC1(C)Oc2ccc3ccc(=O)oc3c2C(N=[N+]=[N-])C1O (centres undefined)
-1
C/C=C(\C)C(=O)O[C@@H]1c2c(ccc3ccc(=O)oc23)OC(C)(C)[C@@H]1OC(C)=O
-1
Cc1cn([C@H]2C[C@H](N=[N+]=[N-])[C@@H](CO)O2)c(=O)[nH]c1=O
1
CC(C)(C)CC(=O)O[C@@H]1c2c(ccc3ccc(=O)oc23)OC(C)(C)[C@@H]1OC(=O)CC(C)(C)C
-1

Decide: is the reported value of selectivity ratio for CC1(C)C=Cc2c(ccc3ccc(=O)oc23)O1 equal to or greater than 10?
-1

Hello, I need to know if CCC(C)C(=O)OC1c2c(ccc3ccc(=O)oc23)OC(C)(C)C1OC(=O)C(C)CC (centres undefined) has measured selectivity ratio not below 10. Thanks!
1

Has CC1(C)Oc2ccc3ccc(=O)oc3c2C(OC(=O)c2cccc(Cl)c2)C1OCc1ccccc1 (centres undefined) a recorded selectivity ratio greater than or equal to 10?
-1

Determine whether this compound has selectivity ratio no lower than 10: CC(=O)OC1c2c(ccc3ccc(=O)oc23)OC(C)(C)C1OCc1ccccc1 (centres undefined)
-1

The origin of these recorded values is ChEMBL document CHEMBL1127408.
